- experiment-notes: binders of probe aFSTL3 on microarray, primary screen, stem cell growth factor project, biochemical, small-molecule microarray, fluorescence 635/667 (AID 1064);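 note: measures binding of the biotinylated anti-FSTL3 antibody to printed compounds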
- assay-context: higher = more signal
endpoint-label: composite z-score

[[record]]
compound = "O=C1C[C@@](C(=O)NCCN2CCOCC2)(c2ccc([N+](=O)[O-])cc2)[C@@H](c2ccc(CO)cc2I)N1CC12CC3CC(CC(C3)C1)C2"
endpoint_label = "composite z-score"
quantitative_result = -0.168

[[record]]
compound = "CO[C@H]1O[C@H](CO)[C@@H](OC(=O)Nc2cccc(F)c2)[C@H](OC(=O)Nc2ccccc2)[C@@H]1OC(=O)Nc1ccccc1"
endpoint_label = "composite z-score"
quantitative_result = -0.139

[[record]]
compound = "CC(C)N1C(=O)C[C@@](C(=O)NCC(F)(F)F)(c2ccc([N+](=O)[O-])cc2)[C@H]1c1ccc(CO)cc1"
endpoint_label = "composite z-score"
quantitative_result = 0.27

[[record]]
compound = "CC(C)C[C@@H]1NC(=O)[C@@H]2C[C@H](C(=O)NCc3ccc(F)cc3)[C@H](c3cccc(OCCO)c3)N2C1=O"
endpoint_label = "composite z-score"
quantitative_result = 0.0163

[[record]]
compound = "NC(=O)N1C(=O)C2C(C1=O)C1C=C(c3ccc(CO)cc3)C2C(c2cccs2)N1Cc1cccc(OC(F)(F)F)c1 (stereo not given)"
endpoint_label = "composite z-score"
quantitative_result = 0.677

[[record]]
compound = "COc1ccc([Si](C)(C)[C@H]2[C@H](CCO)O[C@@]3(C(=O)N(Cc4ccc(N(C=O)c5ccccc5)cc4)c4ccccc43)[C@@H]2C)cc1"
endpoint_label = "composite z-score"
quantitative_result = -0.151

[[record]]
compound = "CC1CC/C=C\\[C@H]2OC34C=CCN(Cc5ccccc5)C(=O)[C@H]3N(CCCO)C(=O)[C@@H]4C2C(=O)O1 (stereo not given in full)"
endpoint_label = "composite z-score"
quantitative_result = 0.291

[[record]]
compound = "C=CCN1C(=O)[C@@]2(Cc3ccccc31)N=C(c1ccc(OCCCO)cc1)O[C@H]2c1ccccc1"
endpoint_label = "composite z-score"
quantitative_result = 1.12

[[record]]
compound = "CO[C@H]1O[C@H](CO)[C@@H](OC(=O)Nc2ccc(C(F)(F)F)cc2)[C@H](OC(=O)Nc2ccc3c(c2)OCO3)[C@@H]1OC(=O)Nc1ccc2c(c1)OCO2"
endpoint_label = "composite z-score"
quantitative_result = -0.139

[[record]]
compound = "OCCCC1=CC(c2cccs2)N(Cc2cc3c(cc2Br)OCO3)CC1 (stereo not given)"
endpoint_label = "composite z-score"
quantitative_result = 0.235

[[record]]
compound = "COC(=O)[C@@]1(Cc2ccc(OC)cc2)[C@@H]2C(=CC(=O)[C@H]2CC(=O)C(=O)N2CCCC2)CN1C(=O)c1ccccc1"
endpoint_label = "composite z-score"
quantitative_result = 0.156

[[record]]
compound = "COc1ccc(C#Cc2ccc3c(c2)[C@]2(C(=O)N3)[C@H](C(=O)Nc3nc4ccccc4s3)[C@H]3C(=O)O[C@H](c4ccccc4)[C@H](c4ccccc4)N3[C@@H]2c2ccc(O)cc2)cc1"
endpoint_label = "composite z-score"
quantitative_result = -0.433

[[record]]
compound = "CCCC[C@@H]1C[C@H]1[C@@H](NC(=O)c1cccs1)c1ccc(-c2ccccc2)cc1"
endpoint_label = "composite z-score"
quantitative_result = 0.108

[[record]]
compound = "C=CCOC(=O)[C@H]1[C@@H]2C(=O)O[C@@H](c3ccccc3)[C@@H](c3ccccc3)N2[C@@H](c2ccc(OCCOC(=O)[C@H]3C[C@H]4C(=O)N[C@@H](CCCCNC(C)=O)C(=O)N4[C@H]3c3ccc(O)cc3)cc2)[C@]12C(=O)Nc1ccc(I)cc12"
endpoint_label = "composite z-score"
quantitative_result = -0.37

[[record]]
compound = "C=C(C(=O)CC[C@@H](OC(=O)c1cccnc1)c1ccccc1OCCO)C(C)C"
endpoint_label = "composite z-score"
quantitative_result = -0.44

[[record]]
compound = "CCN(CC)c1ccc(N2CC=CC34O[C@@H]5C=CCCOC(=O)C5[C@H]3C(=O)N(CCCCCCO)[C@@H]4C2=O)cc1 (stereo not given in full)"
endpoint_label = "composite z-score"
quantitative_result = -0.16

[[record]]
compound = "COc1cc(NN2C(C(O)c3ccco3)C=CC3C(=O)N(c4ccccc4)C(=O)C32)cc(OC)c1OC (stereo not given)"
endpoint_label = "composite z-score"
quantitative_result = -0.178

[[record]]
compound = "C=C(COC)/C(=C/C[C@@H](OC(=O)c1ccncc1)c1ccc(CO)o1)c1cc(C(=O)OC)ccc1OC"
endpoint_label = "composite z-score"
quantitative_result = -0.496

[[record]]
compound = "COC(=O)[C@@]1(Cc2ccccc2)N=C(c2ccc(OCCCO)cc2)O[C@H]1c1ccccc1"
endpoint_label = "composite z-score"
quantitative_result = 0.348

[[record]]
compound = "C=CC[C@]1(C(=O)NCCCOC)N=C(c2ccc(OCCCO)cc2)O[C@H]1c1ccccc1CN=[N+]=[N-]"
endpoint_label = "composite z-score"
quantitative_result = 1.07

[[record]]
compound = "CC(CO)N1C(=O)[C@@H]2C3C(=O)OCCC/C=C\\[C@H]3OC23C=CCN(C(C)(C)C)C(=O)[C@@H]13 (stereo not given in full)"
endpoint_label = "composite z-score"
quantitative_result = 0.104

[[record]]
compound = "CCCC[C@H]1OB(O)C[C@H]2C1=C(COC)C[C@H]1C(=O)N(C)C(=O)[C@H]12"
endpoint_label = "composite z-score"
quantitative_result = -0.441

[[record]]
compound = "CN(C)CCCCCCNC(=O)[C@H]1C[C@H]2C(=O)N[C@@H](CCCCN)C(=O)N2[C@H]1c1cccc(OCCO)c1"
endpoint_label = "composite z-score"
quantitative_result = 3.62

[[record]]
compound = "O=C(CS)NCCCCCCNC(=O)[C@@H]1C[C@@H]2C(=O)NCC(=O)N2[C@@H]1c1cccc(OCCO)c1"
endpoint_label = "composite z-score"
quantitative_result = 0.35

[[record]]
compound = "CCC(CC)C(O)C1C=CC2C(=O)NC(=O)C2N1Nc1ccc(Cl)cc1Cl (stereo not given)"
endpoint_label = "composite z-score"
quantitative_result = 0.494

[[record]]
compound = "Oc1ccc2cc[n+](Cc3sc4ccccc4c3Cl)cc2c1"
endpoint_label = "composite z-score"
quantitative_result = 0.997

[[record]]
compound = "COCCOC(=O)N1C(=O)[C@@]2(c3cc(C#CCC(C(=O)OC)C(=O)OC)ccc31)[C@H](c1ccccc1OCCO)N1[C@H](c3ccccc3)[C@H](c3ccccc3)OC(=O)[C@H]1[C@@H]2C(=O)NC[C@H](O)c1ccccc1"
endpoint_label = "composite z-score"
quantitative_result = -0.0494

[[record]]
compound = "CCCc1cc2c(n1Cc1cc(F)cc(F)c1)C(C)C1CN(C(=O)c3ccccc3)C(C)(C(=O)OC)C21 (stereo not given)"
endpoint_label = "composite z-score"
quantitative_result = 1.25

[[record]]
compound = "CC(C)NC(=O)[C@@H]1c2ccccc2C(=O)N(C2Cc3ccccc3C2)[C@H]1c1ccc(CO)cc1"
endpoint_label = "composite z-score"
quantitative_result = 0.351

[[record]]
compound = "CCC[C@@H]1C[C@@]1(CCC)[C@@H](NS(=O)(=O)c1cccc2cccnc12)c1ccc(Cl)cc1"
endpoint_label = "composite z-score"
quantitative_result = 0.561


Attribution: PubChem BioAssay
